Value source: paper PMC5700166

- tested.target: GST-Nv-NF-kB (Ser allele) (Nematostella vectensis, UniProt A7UNT2 2-411)
- Sequence: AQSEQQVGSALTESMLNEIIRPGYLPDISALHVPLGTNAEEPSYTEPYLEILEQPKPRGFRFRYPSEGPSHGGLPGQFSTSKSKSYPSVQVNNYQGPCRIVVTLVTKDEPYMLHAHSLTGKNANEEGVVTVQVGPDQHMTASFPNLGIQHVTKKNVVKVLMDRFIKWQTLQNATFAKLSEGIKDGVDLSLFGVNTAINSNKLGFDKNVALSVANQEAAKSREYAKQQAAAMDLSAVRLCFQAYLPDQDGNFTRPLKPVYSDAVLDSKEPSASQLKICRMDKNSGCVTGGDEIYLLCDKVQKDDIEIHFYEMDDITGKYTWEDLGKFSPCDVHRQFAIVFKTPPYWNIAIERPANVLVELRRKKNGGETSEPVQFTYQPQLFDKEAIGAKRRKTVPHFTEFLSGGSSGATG
- test.details: protein-binding microarray (PBM); PBM: ~300 nM protein, 6 mM HEPES pH 7.8, 80 mM KCl, 0.5 mM EDTA, 0.5 mM EGTA, 6% glycerol, 35 ng/ul poly-dIdC, 1% milk, 1 h, room temperature; high values mean tight binding
- setup.conditions: dsDNA, one strand shown
binding signal class ranges: lower segment (below 6 z-score), middle segment (6 z-score to below 10 z-score), upper segment (10 z-score or more)

Q: Quick check: band for `CCGATTAACATCAAAAATCCCCGTGATGTTAATCGGGTCTTGATTCGCTTGACGCTGCTG`
Ans: upper segment

Q: Assign a category based on measured binding signal for `CCGATTAACATCAATATTTCCCCTGATGTTAATCGGGTCTTGATTCGCTTGACGCTGCTG` and give only the class name.
Ans: upper segment

Q: Which band does `CCGATTAACATCACGGGAATACCTGATGTTAATCGGGTCTTGATTCGCTTGACGCTGCTG` fall in?
Ans: lower segment

Q: Note: place this sequence into its band. Item: `CCGATTAACATCAGCAATCCCCCTGATGTTAATCGGGTCTTGATTCGCTTGACGCTGCTG`
Ans: middle segment

Q: Class label required: `CCGATTAACATCAGGGGGGTGAATGATGTTAATCGGGTCTTGATTCGCTTGACGCTGCTG`
Ans: lower segment

Q: In plain terms, what class is `CCGATTAACATCATTAGGGGAAGTGATGTTAATCGGGTCTTGATTCGCTTGACGCTGCTG` ?
Ans: middle segment

Q: For this sequence, which bin applies? `CCGATTAACATCAATAATTCCCCTGATGTTAATCGGGTCTTGATTCGCTTGACGCTGCTG`
Ans: upper segment

Q: For `CCGATTAACATCAGGGGGGATTATGATGTTAATCGGGTCTTGATTCGCTTGACGCTGCTG` , which binding signal bin applies?
Ans: middle segment

###

- tested.target: GST-Aq-NF-kB (Amphimedon queenslandica, UniProt A9Y5G7 2-389)
- Sequence: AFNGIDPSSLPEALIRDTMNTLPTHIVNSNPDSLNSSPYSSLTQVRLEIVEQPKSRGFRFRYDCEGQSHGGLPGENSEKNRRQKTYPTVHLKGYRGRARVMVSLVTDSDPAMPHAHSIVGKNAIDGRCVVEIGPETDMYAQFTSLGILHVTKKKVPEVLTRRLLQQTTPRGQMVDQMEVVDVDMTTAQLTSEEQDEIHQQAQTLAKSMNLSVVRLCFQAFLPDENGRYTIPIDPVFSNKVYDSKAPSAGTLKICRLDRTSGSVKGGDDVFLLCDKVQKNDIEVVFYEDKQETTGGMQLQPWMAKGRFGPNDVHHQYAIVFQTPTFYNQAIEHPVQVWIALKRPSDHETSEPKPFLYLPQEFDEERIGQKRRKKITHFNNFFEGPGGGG
- test.details: protein-binding microarray (PBM); PBM: ~300 nM protein, 6 mM HEPES pH 7.8, 80 mM KCl, 0.5 mM EDTA, 0.5 mM EGTA, 6% glycerol, 35 ng/ul poly-dIdC, 1% milk, 1 h, room temperature; Ap Aiptasia and Nv Nematostella (sea anemones) / Co Capsaspora / Aq Amphimedon (sponge) / Dm Drosophila / Hu human; RHD is the Rel homology domain; high values mean tight binding
- setup.conditions: dsDNA, one strand shown
The following ranges of binding signal define the classes used here: zone 1 (below 4 z-score), zone 2 (4 z-score to below 6 z-score), zone 3 (6 z-score or more)

Q: Consider `CCGATTAACATCACAAATTTCCCTGATGTTAATCGGGTCTTGATTCGCTTGACGCTGCTG` . To which binding signal class does it belong?
Ans: zone 3

Q: Band assignment needed for `CCGATTAACATCAAGGGAAACCCTGATGTTAATCGGGTCTTGATTCGCTTGACGCTGCTG` please.
Ans: zone 2

Q: Place this sequence in its band: `CCGATTAACATCAAGAAAACCCCTGATGTTAATCGGGTCTTGATTCGCTTGACGCTGCTG`
Ans: zone 3

Q: Which class does `CCGATTAACATCAAATTTTCCGGTGATGTTAATCGGGTCTTGATTCGCTTGACGCTGCTG` fall in?
Ans: zone 1

Q: Lab note: which band did `CCGATTAACATCAGGGGGCAAGATGATGTTAATCGGGTCTTGATTCGCTTGACGCTGCTG` land in?
Ans: zone 1

Q: Bin? `CCGATTAACATCAATTTACCCCCTGATGTTAATCGGGTCTTGATTCGCTTGACGCTGCTG`
Ans: zone 2

Q: Kindly identify the class of `CCGATTAACATCATTAGGGTATTTGATGTTAATCGGGTCTTGATTCGCTTGACGCTGCTG` .
Ans: zone 1

Q: Place this sequence in its band: `CCGATTAACATCAAAATTCCCCATGATGTTAATCGGGTCTTGATTCGCTTGACGCTGCTG`
Ans: zone 3
